# Tested on: E. coli ATCC25922
# Type: cell-based, Escherichia coli
# experimental_context: ATCC25922, 16 h
Non-standard residues stand in square brackets, D forms with d. Residues, ends and D or L forms follow the SMILES beside them.
reported_metric: MIC in the presence of KCl

Request: I would be grateful if you could share the reported MIC in the presence of KCl for CC(C)C[C@H](NC(=O)[C@H](CC(C)C)NC(=O)[C@H](CCCNC(=N)N)NC(=O)[C@H](CC(C)C)NC(=O)[C@H](CC(C)C)NC(=O)[C@H](CCCNC(=N)N)NC(=O)[C@H](CCCNC(=N)N)NC(=O)CNC(=O)[C@H]1CCCN1C(=O)[C@H](CCCNC(=N)N)NC(=O)[C@H](CCCNC(=N)N)NC(=O)[C@H](CC(C)C)NC(=O)[C@H](CC(C)C)NC(=O)[C@H](CCCNC(=N)N)NC(=O)[C@H](CC(C)C)NC(=O)[C@@H](N)CC(C)C)C(N)=O [LRpG] (H-LLRLLRR[dP]GRRLLRLL-NH2) .
Response: 2 µM

====

# Tested on: Escherichia coli ATCC25922
# method_description: microbe, parasite or virus in culture
# experimental_context: Escherichia coli, ATCC25922, 16 h
Please provide measured MIC for the entries that follow.
Answers are plain numbers, in µM.

Example molecules with recorded MIC:
Request: Give the reported MIC for O=C(N[C@H](CO)[C@H](O)c1ccc([N+](=O)[O-])cc1)C(Cl)Cl [chloramphenicol, reference compound] (system: Escherichia coli ATCC25922).
Response: 8

Request: Give the reported MIC for [H]/N=C(/N)N[C@H]1[C@H](O)[C@@H](O)[C@H](O[C@@H]2O[C@@H](C)[C@](O)(C=O)[C@H]2O[C@@H]2O[C@@H](CO)[C@H](O)[C@@H](O)[C@@H]2NC)[C@@H](N/C(N)=N\[H])[C@@H]1O [streptomycin, reference compound] (system: Escherichia coli ATCC25922).
Response: 2

Request: Give the reported MIC for O=C(O)c1cn(C2CC2)c2cc(N3CCNCC3)c(F)cc2c1=O [ciprofloxacin, reference compound] (system: Escherichia coli ATCC25922).
Response: 8

# evaluate next
Request: Give the reported MIC for CO/N=C(\C(=O)N[C@@H]1C(=O)N2C(C(=O)O)=C(COC(C)=O)CS[C@H]12)c1csc(N)n1 [cefotaxime, reference compound] (system: Escherichia coli ATCC25922).
Response: 2

====

# Tested on: RAW 264.7 cells
# method_description: Cytotoxicity, CCK-8 assay
# Assay type: cell-based, murine
# experimental_context: 64 μM peptide, 16 h, CCK-8, OD 450 nm
Non-standard residues stand in square brackets, D forms with d. Residues, ends and D or L forms follow the SMILES beside them.
reported_metric: cell survival rate (%)
Give bare numbers, in %.

Request: Give the reported cell survival rate for CC[C@H](C)[C@H](N)C(=O)N[C@H](C(=O)N[C@@H](CCCNC(=N)N)C(=O)N[C@H](C(=O)N[C@H](C(=O)N[C@@H](CCCNC(=N)N)C(=O)N[C@@H](CCCNC(=N)N)C(=O)N1CCC[C@@H]1C(=O)NCC(=O)N[C@@H](CCCNC(=N)N)C(=O)N[C@@H](CCCNC(=N)N)C(=O)N[C@H](C(=O)N[C@H](C(=O)N[C@@H](CCCNC(=N)N)C(=O)N[C@H](C(=O)N[C@H](C(N)=O)[C@@H](C)CC)[C@@H](C)CC)[C@@H](C)CC)[C@@H](C)CC)[C@@H](C)CC)[C@@H](C)CC)[C@@H](C)CC [IRpG] (H-IIRIIRR[dP]GRRIIRII-NH2) (system: RAW 264.7 cells).
Response: 98
